# System: Sam68 (KHDRBS1)
# assay.protocol: compounds binding KHDRBS1 protein – biochemical, small-molecule microarray, 635 nm fluorescence, primary screen (AID 1125);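 note: score merges 667 nm channel intensity with signal to noise over triplicate slides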
# conditions: higher = more signal
Mark condition met for reported composite z-score of 0.8 or greater; mark condition not met for anything smaller.

* C=CCN1Cc2ccccc2[C@@H]2OC(c3ccc(OCCCO)cc3)=N[C@]2(CC=C)C1=O | condition met
* COCCOC(=O)N1C(=O)[C@@]2(c3cc(C#CC4=CCCCC4)ccc31)[C@H](c1ccccc1OCCO)N1[C@H](c3ccccc3)[C@H](c3ccccc3)OC(=O)[C@H]1[C@@H]2C(=O)NC[C@H](O)c1ccccc1 | condition met
* [N-]=[N+]=Nc1ccccc1C[C@]1(C(=O)O)COC(c2ccc(OCCCO)cc2)=N1 | condition not met
* C=CCC(OC(C)=O)[C@@H]1[C@@H](N(Cc2cccc3ccccc23)C(=O)Cc2ccc(OC)cc2)c2cc(OCCCO)ccc2N1C(=O)c1ccc(-c2ccccc2)cc1 (stereo partly specified) | condition not met
* COC(=O)[C@@]1(Cc2ccc(OC)cc2)[C@H]2c3cc(C(=O)N4CCCC4)n(CCO)c3C[C@H]2CN1C(=O)c1ccccc1 | condition met
* CN(C)c1ccc(C(O)C2C=CC3C(=O)NC(=O)C3N2Nc2ccccn2)cc1 (stereo unspecified) | condition not met
* CCCCC(CC)C(O)C1C=CC2C(=O)N(c3ccccc3)C(=O)C2N1Nc1ccc(C#N)cc1 (stereo unspecified) | condition met
* CC(C)NC(=O)[C@@]1(c2ccc([N+](=O)[O-])cc2)CC(=O)N(C2CCCCC2)[C@@H]1c1ccc(CO)cc1 | condition met
* CCCC[C@@H]1C[C@H]1[C@@H](NC(=O)c1cccs1)c1ccccc1C(F)(F)F | condition met
* CCCCC(O)C1C=CC2C(=O)N(C)C(=O)C2N1N(c1ccccc1)c1ccccc1 (stereo unspecified) | condition met
* COc1ccccc1CN1C(=O)c2ccccc2[C@](Cc2ccccc2I)(C(=O)O)[C@@H]1c1ccc(CO)cc1 | condition met
* Cc1ccc(C(C)CC(O)C2C=CC3C(=O)N(c4ccccc4)C(=O)C3N2Nc2ccccc2)o1 (stereo unspecified) | condition met
* CC(C)c1ccc(NN2C(C(O)c3ccc(C#N)cc3)C=CC3C(=O)N(c4ccccc4)C(=O)C32)cc1 (stereo unspecified) | condition met
* COCC(=C=CC[C@H](O)c1ccc(CO)o1)CCO | condition not met
* C=CCC(OC(C)=O)[C@@H]1[C@@H](N(Cc2ccc(-c3cccc(C(F)(F)F)c3)o2)C(=O)Cc2ccc(OC)cc2)c2cc(OCCCO)ccc2N1C(=O)c1ccc(-c2ccccc2)cc1 (stereo partly specified) | condition not met
* COCCOC(=O)N1C(=O)[C@@]2(c3cc(C#CCNC(N)=O)ccc31)[C@H](C(N)=O)[C@H]1C(=O)O[C@H](c3ccccc3)[C@H](c3ccccc3)N1[C@@H]2c1ccccc1OCCO | condition met

###

# assay.protocol: inhibition of PAO1 biofilm formation – strain PAO1, LB-PBS medium, absorbance 600 nm, primary screen (AID 1176); note: test concentration not given here
# conditions: P. aeruginosa PAO1 growth/biofilm, A600, 12 h; higher = more signal
Mark MET for reported z-score of -0.02 or greater; mark NOT MET for anything smaller.

• Cc1ccc(S[C@]2(C(=O)NCC(F)(F)F)CC(=O)N(Cc3cc(C(F)(F)F)cc(C(F)(F)F)c3)[C@@H]2c2ccc(CO)cc2I)cc1 = NOT MET
• C=CCOC(=O)[C@@]1(Cc2ccccc2)C[C@H]2CO[C@H](c3ccc(OC)cc3)N2C1=O = MET
• CCOC(=O)C=Cc1cccc(C)c1O = MET
• O=c1cccc(-c2ccc([N+](=O)[O-])cc2)o1 = MET
• COCCOC(=O)N1C(=O)[C@@]2(c3ccccc31)[C@H](C(=O)NC[C@H](O)c1ccccc1)[C@H]1C(=O)O[C@H](c3ccccc3)[C@H](c3ccccc3)N1[C@@H]2c1ccc(O)cc1 = MET
• C=CC[C@@]1(C(=O)NCCCOC)N=C(c2ccc(OCCCO)cc2)O[C@@H]1c1ccccc1N=[N+]=[N-] = NOT MET
• C#CCN([C@@H](Cc1ccccc1)C(=O)OC)[C@@H](/C=C/C1CC1)[C@H](O)Cc1ccccc1 = NOT MET

The reported numbers originate from PubChem BioAssay.
